test system: 3D7; assay: qHTS profiling for inhibitors of Plasmodium falciparum proliferation (AID 504749); also: nearly all actives have a fitted effect of over 60% in size; details: P. falciparum in erythrocytes, SYBR Green DNA, 72 h; series mostly up to 28.7 µM
Records with an inconclusive call do not appear. Active and inactive are the calls of the source. Calls follow the shape of the dose curve; as a rule, active = well fitted inhibition curve with a large enough effect; inconclusive = small, poorly fitted or top-dose-only effect; inactive = flat fitted curve, though single readings scatter.
Could you please pick one outcome from this set? active, inactive

{"columns": ["molecule", "system-tested", "class"],
 "data": [
  ["COc1ccc2nc(S(=O)Cc3ncc(C)c(OC)c3C)[nH]c2c1 (configuration not stated)", "3D7", "inactive"],
  ["O=C1CCc2cc(OCCCCc3nnnn3C3CCCCC3)ccc2N1", "3D7", "inactive"]
]}

Inquiry: What call does the record list for NS(=O)(=O)c1cc2c(cc1Cl)NC=NS2(=O)=O ?
Reply text: inactive

Inquiry: What call does the record list for CNC[C@H](O)c1cccc(O)c1 ?
Reply text: inactive

Inquiry: What call does the record list for CC(c1cc2ccccc2s1)N(O)C(N)=O (configuration not stated) ?
Reply text: inactive

Inquiry: What call does the record list for Cn1cnc([N+](=O)[O-])c1Sc1ncnc2nc[nH]c12 ?
Reply text: inactive

Inquiry: What call does the record list for CC(C)C[C@H](NC(=O)[C@@H](O)[C@H](N)Cc1ccccc1)C(=O)O ?
Reply text: active

Inquiry: What call does the record list for C#Cc1cccc(Nc2ncnc3cc(OCCOC)c(OCCOC)cc23)c1 ?
Reply text: active

Inquiry: What call does the record list for CC(=O)Oc1ccccc1C(=O)O ?
Reply text: inactive

Inquiry: What call does the record list for Cc1[nH]c(=O)c(C#N)cc1-c1ccc2nccn2c1 ?
Reply text: inactive

Inquiry: What call does the record list for Cc1c(C)c2c(c(C)c1O)CCC(C)(COc1ccc(CC3SC(=O)NC3=O)cc1)O2 (configuration not stated) ?
Reply text: inactive

Inquiry: What call does the record list for NC[C@H](O)c1ccc(O)c(O)c1 ?
Reply text: inactive
